Biological target: BKV serotype IV chimeric infectious virus (VP1 of strain ITA-4) (BK virus serotype IV)
Assay: cell-based or functional assay
quantity-measured: neutralization EC50 (µg/mL)
Hi! Could you send only the number? It should be in µg/mL, unit omitted.

query: What value of measured neutralization EC50 is listed for P8D11A (antibody, V domains shown) VH: QVQLVESGGTLVQPGGSLRLSCAASGFTFSNYWMTWVRQAPGKGLEWVANIKKDGSEKYYVDSVRGRFTISRDNAKNSLFLQMNSLRPEDTAVYFCATVRSGRYFALDDWGQGTLVTVSS VL: QSVLTQPPSVSVAPGKTARITCGGDNIGSRPVHWYQQKPGQAPILVVYDDSNRPSGIPERFSGSNSGNTATLTISRVEAGDEADYYCQVWSSSTDHPFGGGTKVTVLG ?
result: 0.015
